TGT: T1, human [1-305]-mouse chimeric EL (human; mouse, UniProt Q9WVG5 306-500)
T1 sequence: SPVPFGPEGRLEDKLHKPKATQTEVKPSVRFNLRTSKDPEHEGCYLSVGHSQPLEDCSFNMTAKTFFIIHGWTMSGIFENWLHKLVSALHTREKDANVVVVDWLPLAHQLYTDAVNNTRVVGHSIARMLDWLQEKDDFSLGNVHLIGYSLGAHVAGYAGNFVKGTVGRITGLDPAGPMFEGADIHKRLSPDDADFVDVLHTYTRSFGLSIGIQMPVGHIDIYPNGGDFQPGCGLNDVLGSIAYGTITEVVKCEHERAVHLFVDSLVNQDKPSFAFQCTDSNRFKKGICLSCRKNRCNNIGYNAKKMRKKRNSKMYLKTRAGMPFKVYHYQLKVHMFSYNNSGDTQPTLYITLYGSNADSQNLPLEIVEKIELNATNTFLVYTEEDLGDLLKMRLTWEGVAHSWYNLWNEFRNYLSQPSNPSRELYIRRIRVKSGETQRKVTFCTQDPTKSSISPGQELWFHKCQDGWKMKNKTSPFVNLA
ASSAY_INFO: cell-based or functional assay
YES means recorded Neutralizing activity IC50 is 2 nM or above; NO means it is below 2 nM.

BINDER	LABEL_CLASS
h16B3-S8 (antibody, V domains shown, humanized) VH: EVQLVESGGGLVQPGGSLRLSCAASGFTFSAYTMSWVRQAPGKGLEWVSDISFARDRAFYPDTVKGRFTISRDNSKNTLYLQMNSLRAEDTAVYYCARLGGKNRDFWYFDLWGQGTTVTVSS VL: DIVMTQSPDSLAVSLGERATINCRASESVEYYGTSLMQWYQQKPGQPPKLLIYAASNVESGVPDRFSGSGSGTDFTLTISSLQAEDVAVYYCQQSWRVPFTFGQGTKLEIK	NO
h16B3-S3 (antibody, V domains shown, humanized) VH: EVQLVESGGGLVQPGGSLRLSCAASGFTFSGYTMSWVRQAPGKGLEWVSEISFARDRAFYPDTVKGRFTISRDNSKNTLYLQMNSLRAEDTAVYYCARLGGKNHDFWYFDVWGQGTTVTVSS VL: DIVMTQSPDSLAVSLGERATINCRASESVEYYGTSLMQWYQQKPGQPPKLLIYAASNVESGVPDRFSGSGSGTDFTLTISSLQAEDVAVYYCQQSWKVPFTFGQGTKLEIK	NO
h55A1-S1 (antibody, V domains shown, humanized) VH: QVQLVQSGSELKKPGASVKVSCKASGYTFTNYGMNWVRQAPGQGLEWMGWINTYSGVPTYAGDFKGRFVFSLDTSVSTAYLQISSLKAEDTAVYYCARRGYYGRRYFDVWGKGTTVTVSS VL: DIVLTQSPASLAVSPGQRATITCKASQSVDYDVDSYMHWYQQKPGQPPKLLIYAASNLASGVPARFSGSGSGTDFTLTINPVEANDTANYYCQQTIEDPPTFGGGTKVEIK	YES
h16B3-S4 (antibody, V domains shown, humanized) VH: EVQLVESGGGLVQPGGSLRLSCAASGFTFSGYTMSWVRQAPGKGLEWVSEISFARDRAFYPDTVKGRFTISRDNSKNTLYLQMNSLRAEDTAVYYCARLGGKNHDFWYFDVWGQGTTVTVSS VL: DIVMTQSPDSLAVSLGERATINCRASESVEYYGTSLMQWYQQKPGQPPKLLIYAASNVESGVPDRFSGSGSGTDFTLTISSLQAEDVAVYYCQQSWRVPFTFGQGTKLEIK	NO
55A1 (antibody, mouse IgG2a, V domains shown, mouse IgG2a from hybridoma; also called 55A1 (mouse mAb)) VH: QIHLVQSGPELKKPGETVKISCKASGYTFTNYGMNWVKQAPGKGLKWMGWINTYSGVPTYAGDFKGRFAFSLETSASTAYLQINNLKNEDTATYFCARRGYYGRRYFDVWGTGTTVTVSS VL: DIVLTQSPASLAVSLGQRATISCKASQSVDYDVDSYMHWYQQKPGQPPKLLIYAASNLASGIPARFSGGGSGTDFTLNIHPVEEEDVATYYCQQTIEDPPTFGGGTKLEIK	NO

These measurements were taken from patent US20200071424A1.
